For each of the compounds below, state its Hepatotoxicity (moderate).
# Assay Context: human, serum;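 note: human clinical chemistry: moderate when serum ALT or AST reaches 6× upper normal limit or alkaline phosphatase 1.7×, value counts indexed literature references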
One number for each entry.

See these solved cases before continuing.
Compound | Observable | Numeric Readout
CN1CCc2cccc3c2[C@H]1Cc1ccc(O)c(O)c1-3 | Hepatotoxicity (moderate) | 1
CCCC(C)(COC(N)=O)COC(N)=O [MEPROBAMATE] | Hepatotoxicity (moderate) | 0
C=C[C@H]1C[N@@]2CC[C@H]1C[C@@H]2[C@@H](O)c1ccnc2ccc(OC)cc12 | Hepatotoxicity (moderate) | 5
CN(C)c1ccc(O)c2c1C[C@H]1C[C@H]3[C@H](N(C)C)C(O)=C(C(N)=O)C(=O)[C@@]3(O)C(O)=C1C2=O | Hepatotoxicity (moderate) | 17
CO[C@H]1Cc2c(O)cc(O)cc2O[C@@H]1c1ccc(O)c(O)c1 | Hepatotoxicity (moderate) | 1

State the recorded Hepatotoxicity (moderate) for every item in the following list.
1. CCCCC(=O)N(Cc1ccc(-c2ccccc2-c2nnn[nH]2)cc1)[C@H](C(=O)O)C(C)C
2. CC1(C)S[C@@H]2[C@H](NC(=O)[C@H](N)c3ccccc3)C(=O)N2[C@H]1C(=O)O
3. Cc1cc2c(C(C)C)c(O)c(O)c(C=O)c2c(O)c1-c1c(C)cc2c(C(C)C)c(O)c(O)c(C=O)c2c1O

Out:
1. 2
2. 7
3. 1
